test system: Escherichia coli TOP10; experiment: shrunken log2 fold change of peptide-encoding DNA abundance (4.5 h post-induction vs induction); higher = less antimicrobial activity (less host growth inhibition); conditions: time post-induction: 4.5 h; library: site-saturation at positions 5, 18, 19, 20;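 further: peptides expressed intracellularly from a pBAD plasmid library in pooled LB shake-flask culture, induced with 0.3% L-arabinose, DNA abundance read by NGS, three biological replicates, DESeq2 with apeglm shrinkage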
Hi, to clarify the labels: true (1) covers shrunken log2 fold change from 0.1 upward, false (0) covers anything below 0.1.

RRIRFRPPRLPRPRPRPVCNPRP = false (0)
RRIRRRPPRLPRPRPRPGNHPRP = false (0)
RRIRIRPPRLPRPRPRPITFPRP = false (0)
RRIRSRPPRLPRPRPRPCWRPRP = true (1)
RRIRLRPPRLPRPRPRPASLPRP = true (1)
RRIRSRPPRLPRPRPRPQDQPRP = false (0)
RRIRVRPPRLPRPRPRPPSCPRP = true (1)
RRIRMRPPRLPRPRPRPHKSPRP = true (1)
